# Tested on: SW-620 colon
# procedure-details: NCI-60 one-dose screen, 48 h (100 = growth as untreated, 0 = no growth, -100 = all killed)
# settings: 10 µM unless noted
This is part of a sample that, as a whole, favours compounds with a hit. Of some 83,000 tested, about 20% had one in any assay.
Below is a list of entries, each paired with its recorded growth value.
The response must be a number in % with no trailing unit.

> print(dat)
                                   compound  tested.target  assay.readout  result.value
1  ClC1OC(Cl)(Cl)C(Cl)(Cl)OC1(Cl)Cl (centres undefined)   SW-620 colon         growth           115
2  COC12CC3(C)C(C4=CC(=O)OC4)CCC3(O)C3CCC4=CC(=O)CCC4(CO1)C32 (centres undefined)   SW-620 colon         growth           105
3  CC(Oc1ccc(-c2ccccc2)cc1)C(=O)O (centres undefined)   SW-620 colon         growth           102

Here is the next item to consider.
The recorded growth for C[C@@]12CCCc3coc(c31)C(=O)c1cc3c(cc12)C(=O)C1=C(NCCS1(=O)=O)C3=O is -43.8

---

# Tested on: LOX IMVI melanoma
# procedure-details: NCI-60 one-dose screen, 48 h
# settings: 10 µM unless noted
About 83,000 compounds went through this panel and 20% of them were active in at least one assay; those are over-represented in the sample as a whole. Calls of active or inactive are those of the source. How the source made its calls: active means growth percent below 10; inactive means the rest.
Give your call using only these classes: Yes for active, No for inactive

compound	class-label
COC(=O)C12C3C4C1C1C2C3C41NC(=O)c1csc([C@@H](C[C@H](C(C)C)N(C)C(=O)[C@@H](NC(=O)[C@H]2CCCCN2C)C2CC2)OC(C)=O)n1 (stereo partly specified)	No
Cc1ccc(NC2=N[C@]34CC(=O)CC[C@]3(C)[C@H]3CC[C@]5(C)C(=O)CC[C@H]5[C@@H]3C[C@@H]4S2)c(C)c1	Yes
CC[C@H](C)[C@H]1O[C@]2(C=C[C@@H]1C)C[C@@H]1C[C@@H](C/C=C(\C)[C@@H](O[C@H]3C[C@H](OC)[C@@H](O[C@H]4C[C@H](OC)[C@@H](NC)[C@H](C)O4)[C@H](C)O3)[C@@H](C)/C=C/C=C3\CO[C@@H]4[C@H](O)C(C)=C[C@@H](C(=O)O1)[C@]34O)O2	Yes

Hi team, can someone confirm the assay call for CCC(=O)C(CC(C)[N+](C)(C)C)(c1ccccc1)c1ccccc1 (stereo unspecified) ? No

Hi team, can someone confirm the assay call for CCOC(=O)c1ccccc1C(=O)OCC ? No

Hi team, can someone confirm the assay call for C[C@@]12CCCc3coc(c31)C(=O)c1cc3c(cc12)C(=O)C1=C(NCCS1(=O)=O)C3=O ? Yes

Hi team, can someone confirm the assay call for C#COc1cccc(Nc2ncnc3cc(NC(=O)CF)ccc23)c1 ? No

Hi team, can someone confirm the assay call for C[C@]12CC[C@@H](OC(=O)N(CCCl)N=O)C[C@@H]1CC[C@@H]1[C@@H]2CC[C@]2(C)C(=O)CC[C@@H]12 ? No

Hi team, can someone confirm the assay call for CC[C@H](C)[C@H](NC(=O)[C@H]1CCCCN1C)C(=O)N(C)[C@H](C(=O)NC12CC(C(=O)N[C@@H](Cc3ccccc3)C[C@H](C)C(=O)OC)(C1)C2)C(C)C ? No

Hi team, can someone confirm the assay call for COc1ccc2c(c1)c(-c1nc(-c3c[nH]c4ncccc34)cs1)cn2CCCCN1CCOCC1 ? Yes

Hi team, can someone confirm the assay call for N#CCC(=O)c1ccccc1 ? No

Hi team, can someone confirm the assay call for CC[C@H](C)[C@H](NC(=O)C12CC(NC)(C1)C2)C(=O)N(C)[C@H](C[C@@H](OC(C)=O)c1nc(C(=O)N[C@@H](Cc2ccccc2)C[C@H](C)C(=O)OC)cs1)C(C)C ? Yes

Hi team, can someone confirm the assay call for CC1(C)C=Cc2c(ccc3c2[N+]([O-])=C2C3=C[C@@]34NC(=O)[C@]5(CCCN5C3=O)C[C@@H]4C2(C)C)O1 ? No

Hi team, can someone confirm the assay call for COc1ccc(C(C#N)C(C)=O)cc1 (stereo unspecified) ? No

Hi team, can someone confirm the assay call for CN1C2CCC1[C@@H](COC(=O)c1ccccc1)[C@@H](O)C2 (stereo partly specified) ? No

Hi team, can someone confirm the assay call for Cc1cc(N(CCCl)CCCl)ccc1C=Nc1ccc(-c2csc(-c3ccccc3)n2)cc1 ? No

---

# System: CAKI-1 renal
# procedure-details: NCI-60 one-dose screen, 48 h (100 = growth as untreated, 0 = no growth, -100 = all killed)
# settings: 10 µM unless noted
The panel holds about 83,000 compounds, 20% with a hit somewhere; the sample as a whole holds those more often.
Parameter class (string): assigned from measured growth. Ranges: lower segment = under 80%, middle segment = from 80% up to 90%, upper segment = 90% and over

The following compounds have reported results that may help.
> print(dat)
                              smiles.string     class.label
1                   C[C@H](O)CCC(=O)c1ccoc1   upper segment
2  Cn1cc(-c2csc(-c3cn(CCCCN4CCOCC4)c4ccc(F)cc34)n2)c2cccnc21   lower segment
3               CNC(=O)O/N=C(\SC)C(=O)N(C)C   upper segment
4  CC[C@H](C)[C@H](NC(=O)[C@H]1CCCCN1C)C(=O)N(C)[C@H](C[C@@H](OC(C)=O)c1nc(C(=O)N[C@@H](Cc2ccccc2)C[C@H](C)C(=O)O)cs1)C(C)C   lower segment
5  COc1ccc2c(c1)c(-c1nc(-c3cn(C)c4ncccc34)cs1)cn2CCCCN1CCOCC1   lower segment
6  C[C@]12CC[C@H]3[C@@H](CC=C4c5nc(-c6ccc(Br)cc6)sc5CC[C@@]43C)[C@@H]1CC[C@@H]2O  middle segment
7                Cc1ccc(N2CCN(CCC#N)CC2)cc1  middle segment
8                            COc1ccc(N)cc1N   upper segment

Which of the defined bands does the recorded growth of COc1cc(/C=C\[N+](=O)[O-])ccc1OCc1ccccc1 sit within? lower segment

---

# Test system: ACHN renal
# procedure-details: NCI-60 one-dose screen, 48 h (100 = growth as untreated, 0 = no growth, -100 = all killed)
# settings: 10 µM unless noted
Compounds without any hit were thinned out: in the full panel of roughly 83,000, 20% have a hit.
Below is a list of entries, each paired with its recorded growth value.
The response must be a number in % with no trailing unit.

compound	result-value
COc1ccc2c(c1)c(-c1nc(-c3cn(C)c4ncccc34)cs1)cn2CCCCN1CCOCC1	32
COC(=O)C12C3C4C1C1C2C3C41NC(=O)c1csc([C@@H](C[C@H](C(C)C)N(C)C(=O)[C@@H](NC(=O)[C@H]2CCCCN2C)C2CC2)OC(C)=O)n1 (some centres undefined)	36.4
C/C(=N/OC(=O)N(C)C)c1ccc(Cl)c(Cl)c1	112
Oc1ccccc1C=NCCN=Cc1ccccc1O	103
C[C@]12CC[C@@H](OC(=O)N(CCCl)N=O)C[C@@H]1CC[C@@H]1[C@@H]2CC[C@]2(C)C(=O)CC[C@@H]12	21.7

The recorded growth for CC(=O)Nc1nc2c(s1)C1=CC[C@H]3[C@@H]4CC[C@H](OC(C)=O)[C@@]4(C)CC[C@@H]3[C@@]1(C)CC2 is 67.7

The recorded growth for COC(=O)CCP(CCC(=O)OC)c1ccccc1 is 108

The recorded growth for CCOC(=O)c1cncn1C(C)c1ccccc1 (centres undefined) is 102

The recorded growth for C/C(=C\c1ccn(-c2ccc(N)c(C(F)(F)F)c2)n1)[C@@H]1C[C@@H]2O[C@]2(C)CCC[C@H](C)[C@H](O)[C@@H](C)C(=O)C(C)(C)[C@@H](O)CC(=O)O1 is 46.3

The recorded growth for Cn1cc(C(=O)C[n+]2ccccc2)c2ccccc21 is 109

---

# System: NCI-H226 lung
# procedure-details: NCI-60 one-dose screen, 48 h (100 = growth as untreated, 0 = no growth, -100 = all killed)
# settings: 10 µM unless noted
About 83,000 compounds went through this panel and 20% of them were active in at least one assay; those are over-represented in the sample as a whole.
assay-readout: growth (%)
The response must be a number in % with no trailing unit.

Solved entries (count: 6):
compound	assay-readout	result-value
CCCC[C@H]1C(=O)O[C@H](C)[C@H](NC(=O)c2cccc(NC=O)c2O)C(=O)O[C@@H](C)[C@@H]1OC(=O)CC(C)C	growth	44.1
O=S(OO)c1cc(Cl)c(O)c(Cl)c1 (stereo not drawn)	growth	109
O=NN1CCCCC1	growth	109
COc1ccc(O)c2c(=O)c3c(OC)cc4c(c3oc12)[C@@H]1C=CO[C@@H]1O4	growth	36.8
C[C@]12CC[C@H]3[C@@H](C[C@@H]4SC(Nc5ccccc5)=N[C@@]45C/C(=N/O)CC[C@]35C)[C@@H]1CCC2=O	growth	114
O=C(O)c1ccccc1N(CCO)CCCl	growth	102

The recorded growth for CN1CCC2(CC1)C(C#N)C(=O)NC(=O)C2C#N (stereo not drawn) is 96.1

The recorded growth for COc1cc(C=C2C(=O)NC(=O)NC2=O)ccc1O is 96.1

The recorded growth for COc1cc(C2C3=C(CCCC3=O)N(CCO)c3cc4c(cc32)CCC4)cc(OC)c1OC (stereo not drawn) is 103

The recorded growth for O=C(O)CNCP(=O)(O)O is 103

The recorded growth for Oc1cc(Cl)ccc1Oc1ccc(Cl)cc1Cl is 99.7

The recorded growth for O=c1c2ccccc2nc(-c2ccccc2Cl)n1-c1nnc(C(F)(F)F)s1 is 42.9

The recorded growth for Cn1cc(C(=O)C[n+]2ccccc2)c2ccccc21 is 99.1

The recorded growth for CC1(C)N(Nc2ccccc2)C(=O)C2CCCN21 (stereo not drawn) is 84.6

The recorded growth for CC[C@H](C)[C@H](NC(=O)[C@H]1CCCCN1C)C(=O)N(C)[C@H](C[C@@H](OC(C)=O)c1nc(C(=O)N[C@@H](Cc2ccccc2)C[C@H](C)C(=O)O)cs1)C(C)C is 11.6
